target: MAP kinase p38 (Homo sapiens, UniProt O15264+Q15759+Q16539+P53778); assay: Inhibition of p38 kinase; format: protein assay
Readings of IC50 for the listed molecules

[
  {
    "compoundString": "CCOC(=O)c1c(-c2cc(F)cc(F)c2)c(-c2ccncc2)c(N2CCNCC2)n1C",
    "resultComparator": ">",
    "IC50 (µM)": 10
  },
  {
    "compoundString": "CC(=O)N1CCN(c2c(-c3ccncc3)c(-c3ccc(F)cc3)c(C#N)n2C)CC1",
    "resultComparator": "=",
    "IC50 (µM)": 2
  },
  {
    "compoundString": "CCOC(=O)c1c(-c2cccc(C(F)(F)F)c2)c(-c2ccncc2)c(N2CCNCC2)n1C",
    "resultComparator": ">",
    "IC50 (µM)": 10
  },
  {
    "compoundString": "CCOC(=O)c1c(-c2ccc(C)cc2)c(-c2ccncc2)c(N2CCNCC2)n1C",
    "resultComparator": "=",
    "IC50 (µM)": 3.939
  }
]

====

Biological target: 5-hydroxytryptamine receptor 3A (Homo sapiens, UniProt P46098)
Sequence (P46098 whole entry): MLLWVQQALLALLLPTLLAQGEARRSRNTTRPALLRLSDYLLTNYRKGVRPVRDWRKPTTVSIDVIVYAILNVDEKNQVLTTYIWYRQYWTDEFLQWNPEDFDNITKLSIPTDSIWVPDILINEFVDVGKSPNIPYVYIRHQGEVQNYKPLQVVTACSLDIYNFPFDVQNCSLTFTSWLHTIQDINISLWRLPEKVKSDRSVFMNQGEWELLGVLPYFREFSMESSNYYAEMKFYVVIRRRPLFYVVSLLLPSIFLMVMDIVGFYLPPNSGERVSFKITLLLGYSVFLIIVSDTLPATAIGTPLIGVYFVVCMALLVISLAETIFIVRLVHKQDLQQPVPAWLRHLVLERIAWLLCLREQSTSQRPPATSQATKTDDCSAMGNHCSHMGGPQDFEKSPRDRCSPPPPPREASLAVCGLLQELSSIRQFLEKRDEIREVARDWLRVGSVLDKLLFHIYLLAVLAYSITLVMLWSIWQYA

[
  {
    "compoundString": "COC(=O)c1c(-c2ccc(F)cc2)c(-c2ccncc2)c(N2CCNCC2)n1C",
    "IC50 [nM]": 275
  }
]

====

test system: Mus musculus; assay: Inhibition of TNF production in mouse at 10 mg/kg; type: functional
# inhibition in vivo at 10 mg/kg per entry
measuredProperty: inhibition in vivo at 10 mg/kg (%)

[
  {
    "compoundString": "COC(=O)c1c(-c2ccc(F)cc2)c(-c2ccncc2)c(N(C)CCN2CCOCC2)n1C",
    "measuredProperty": "inhibition in vivo at 10 mg/kg",
    "testResult": 78
  },
  {
    "compoundString": "CC(=O)C(=O)c1c(-c2ccc(F)cc2)c(-c2ccncc2)c(N2CCNCC2)n1C",
    "measuredProperty": "inhibition in vivo at 10 mg/kg",
    "testResult": 52
  },
  {
    "compoundString": "CCOC(=O)c1c(-c2ccc(C)cc2)c(-c2ccncc2)c(N2CCNCC2)n1C",
    "measuredProperty": "inhibition in vivo at 10 mg/kg",
    "testResult": 79
  },
  {
    "compoundString": "CCOC(=O)c1c(-c2cc(F)cc(F)c2)c(-c2ccncc2)c(N2CCNCC2)n1C",
    "measuredProperty": "inhibition in vivo at 10 mg/kg",
    "testResult": 79
  }
]
